Some molecules, each annotated with its measured pIC50.
system-under-test: recombinant human FLAP protein (Homo sapiens, UniProt P20292)
Sequence (P20292 whole entry): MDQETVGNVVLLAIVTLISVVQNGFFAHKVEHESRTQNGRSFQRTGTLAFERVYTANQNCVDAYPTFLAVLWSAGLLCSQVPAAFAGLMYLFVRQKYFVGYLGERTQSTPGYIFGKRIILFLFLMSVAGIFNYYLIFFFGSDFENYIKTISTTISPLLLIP
experimental-details: FLAP binding assay (Scintillation Proximity Assay, displacement of [125I]L-691,831)
condition-info: recombinant human FLAP membranes, [125I]L-691,831 probe; read-out: FLAP SPA IC50
pIC50 is a log-scale quantity: -log10 of the concentration expressed in molar.

Sample records with pIC50:
CSCCn1cc(-c2nc(C3(c4ccc(-c5cnc(N)nc5)cc4)CCC3)no2)cn1 | 8.89
Cc1nocc1-c1nc(C2(c3ccc(-c4cnc(N)nc4)cc3)CCC2)no1 | 8.40
CNC(=O)Cn1cccc(-c2nc(C3(c4ccc(-c5cnc(N)nc5)cc4)CCC3)no2)c1=O | 7.68
Nc1ncc(-c2ccc(C3(c4noc(-c5cnn(CC(=O)NC6CCNCC6)c5)n4)CCC3)cc2)cn1 | 8.70
COC1CN(C(=O)Cn2cc(-c3nc(C4(c5ccc(-c6cnc(N)nc6)cc5)CCC4)no3)cn2)C1 | 8.25
CN(C)C(=O)n1cc(-c2nc(C3(c4ccc(-c5cnc(N)nc5)cc4)CCC3)no2)cn1 | 8.82

## Task Quote pIC50 reported for `Nc1ncc(-c2ccc(C3(c4noc(-c5c[nH]c(=O)cn5)n4)CCC3)cc2)cn1` please.
## Result 8.48

## Task Quote pIC50 reported for `Cn1cc(-c2nc(C3(c4ccc(-c5cnc(N)nc5)cc4F)CCC3)no2)cn1` please.
## Result 8.59

## Task Quote pIC50 reported for `Nc1ncc(-c2ccc(C3(c4noc(C(=O)N5CCCC5)n4)CCC3)cc2)cn1` please.
## Result 6.92

## Task Quote pIC50 reported for `CC(C)(C)c1ccc(-c2nc(C3(c4ccc(-c5cnc(N)nc5)cc4)CCC3)no2)cc1` please.
## Result 7.82
